system: F1*sub RNA substrate (template-directed ligation); experiment: fraction ligated after 30 min (ligated reads / total reads); higher = more ligase activity; sequences stand for … in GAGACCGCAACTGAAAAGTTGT…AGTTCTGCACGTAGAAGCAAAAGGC; details: 42 °C
fraction ligated by entry:
Could you respond with only the numeric value?

SEQUENCE_INPUT: TACACTTGTCGTAGACATTTGGATGGGTTGA [3d664]
fraction ligated: 0.464

Assay F1*sub RNA substrate (template-directed ligation), sample TATCACTGTCGTAAGACACTTTGGAGGGTTA [3d1458] , fraction ligated read: 0.0132

Assay F1*sub RNA substrate (template-directed ligation), sample TATCATTGTCGTAAGACACTTTGTGGGTTGA [3d1277] , fraction ligated read: 0.0371

Assay F1*sub RNA substrate (template-directed ligation), sample TACACTTGCGTAAGACACTTTGGAGGGTTGA [3d613] , fraction ligated read: 0.044

Assay F1*sub RNA substrate (template-directed ligation), sample TATCACTTGTCTAAGACACTTTGAGGGTTGA [3d1887] , fraction ligated read: 0.0527

Assay F1*sub RNA substrate (template-directed ligation), sample TATCATTGTCGTAAGAACTTTGGATGGTTGA [3d1252] , fraction ligated read: 0.0537

----------
fraction ligated by entry:
system: F1*sub RNA substrate (template-directed ligation); assay: fraction ligated after 30 min (ligated reads / total reads); higher = more ligase activity; sequences stand for … in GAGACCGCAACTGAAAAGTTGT…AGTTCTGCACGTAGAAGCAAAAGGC; details: 42 °C
Could you respond with only the numeric value?

Example entries and their recorded answers appear below.
SEQUENCE_INPUT: TATCACTTGTCTAAGAACTTTGGTGGGTTGA [3d1859]
fraction ligated: 0.162
--
SEQUENCE_INPUT: TTCACTTGTCGTAAGACCTTTGGATGGTTGA [3d474]
fraction ligated: 0.523
--
SEQUENCE_INPUT: TATCACTTGTCGTAAGCACTTGGATGGGTTA [3d2133]
fraction ligated: 0.565

Assay F1*sub RNA substrate (template-directed ligation), sample TATCACTTTCGTAAGACACTTTGGATGGGTTG [2d162] , fraction ligated read: 0.777

Assay F1*sub RNA substrate (template-directed ligation), sample TATCACTTGTCGTAAGCATTTGGTGGGTTGA [3d2123] , fraction ligated read: 0.0465

Assay F1*sub RNA substrate (template-directed ligation), sample TATACTTGCGTAGACACTTTGGATGGGTTGA [3d815] , fraction ligated read: 0.435

Assay F1*sub RNA substrate (template-directed ligation), sample TACACTTGTCGTAAGACACTTGGTGGGTTGA [3d716] , fraction ligated read: 0.0903

Assay F1*sub RNA substrate (template-directed ligation), sample TACACTTGTCGTAAGACACTTTGGTGGGTTA [3d729] , fraction ligated read: 0.00637

----------
fraction ligated by entry:
test system: F1*sub RNA substrate (template-directed ligation); experiment: fraction ligated after 30 min (ligated reads / total reads); higher = more ligase activity; sequences stand for … in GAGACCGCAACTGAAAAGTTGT…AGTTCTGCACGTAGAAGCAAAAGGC; conditions: 42 °C

Example entries and their recorded answers appear below.
SEQUENCE_INPUT: TTCCTTGTCGTAAGACACTTTGGATGGTTGA [3d314]
fraction ligated: 0.175
--
SEQUENCE_INPUT: TATCATTGTCGTAGACACTTTGGAGGGTTGA [3d1223]
fraction ligated: 0.0919

TATCACTTGTCGTAAGACCTTTATGGGTTGA [3d2190] yielded fraction ligated of 0.11

TATCACTTGTCAAGACACTTTGGAGGGTTGA [3d1819] yielded fraction ligated of 0.138

TATACTTGTCGTAAGACACTTTGGAGGGTTGA [2d86] yielded fraction ligated of 0.0419

TATCACTTGTCTAAGACATTTGGATGGTTGA [3d1875] yielded fraction ligated of 0.137

TACACTGTCTAAGACACTTTGGATGGGTTGA [3d570] yielded fraction ligated of 0.266

TTCACTTGTCGTAGACATTTGGATGGGTTGA [3d434] yielded fraction ligated of 0.742

TATCATTGTCGTAAACACTTTGGATGGGTTG [3d1236] yielded fraction ligated of 0.809

TTCACTTGTCGTAAGACACTTTGATGGGTTG [3d496] yielded fraction ligated of 0.298
